# Species: Homo sapiens
# assayDetails: Metabolic stability in human plasma after 2 hrs
metric: remaining at 2 h (%)

C=C1[C@H](n2ccc(NC(=O)OC[C@@H](NC(=O)[C@@H](N)CC3CCCCC3)C(=O)O)nc2=O)O[C@H](CO)[C@H]1O; 87.4
C=C1[C@H](n2ccc(NC(=O)OC[C@](C)(NC(=O)[C@@H](N)CC3CCCCC3)C(=O)O)nc2=O)O[C@H](CO)[C@H]1O; 95.9
C=C1[C@H](n2ccc(NC(=O)O[C@@H](C(C)C)[C@@H](NC(=O)[C@@H](N)CC3CCCCC3)C(=O)O)nc2=O)O[C@H](CO)[C@H]1O; 89.3
C=C1[C@H](n2ccc(NC(=O)O[C@@H](C)[C@H](NC(=O)[C@H](N)Cc3ccccc3)C(=O)O)nc2=O)O[C@H](CO)[C@H]1O; 84.3
C=C1[C@H](n2ccc(NC(=O)O[C@@H](C)[C@@H](NC(=O)[C@@H](N)Cc3ccc(-c4ccccc4)cc3)C(=O)O)nc2=O)O[C@H](CO)[C@H]1O; 86
C=C1[C@H](n2ccc(NC(=O)O[C@@H](C)[C@H](NC(=O)[C@@H](N)Cc3ccccc3)C(=O)O)nc2=O)O[C@H](CO)[C@H]1O; 90
C=C1[C@H](n2ccc(NC(=O)O[C@@H](C)[C@@H](NC(=O)[C@@H](N)CC3CCCCC3)C(N)=O)nc2=O)O[C@H](CO)[C@H]1O; 104
